- TEST_SUMMARY: Pharmacokinetics of 29 QLQX components in rat plasma by HPLC-MS/MS after intragastric QLQX
- CONDITION_CONTEXT: Sprague-Dawley, rat, plasma, po, […]
OBSERVED_PROPERTY: half-life (h)

Answered cases to consult:
COMPOUND	half-life / h
O=c1c(O)c(-c2ccc(O)c(O)c2)oc2cc(O)cc(O)c12	5.04
CC(C)=CCC[C@](C)(O[C@@H]1O[C@H](CO[C@@H]2OC[C@H](O)[C@H](O)[C@H]2O)[C@@H](O)[C@H](O)[C@H]1O)[C@H]1CC[C@]2(C)[C@@H]1[C@H](O)C[C@@H]1[C@@]3(C)CC[C@H](O[C@@H]4O[C@H](CO)[C@@H](O)[C@H](O)[C@H]4O[C@@H]4O[C@H](CO)[C@@H](O)[C@H](O)[C@H]4O)C(C)(C)[C@@H]3CC[C@]12C [Ginsenoside Rb2]	10.1
COc1ccc(-c2coc3cc(O)ccc3c2=O)cc1	5.07
CC(C)=CCC[C@](C)(O[C@@H]1O[C@H](CO)[C@@H](O)[C@H](O)[C@H]1O)[C@H]1CC[C@]2(C)[C@@H]1[C@H](O)C[C@@H]1[C@@]3(C)CC[C@H](O[C@@H]4O[C@H](CO)[C@@H](O)[C@H](O)[C@H]4O[C@@H]4O[C@H](CO)[C@@H](O)[C@H](O)[C@H]4O)C(C)(C)[C@@H]3CC[C@]12C [Ginsenoside Rd]	5.9
CC(C)=CCC[C@](C)(O[C@@H]1O[C@H](CO[C@@H]2O[C@@H](CO)[C@H](O)[C@H]2O)[C@@H](O)[C@H](O)[C@H]1O)[C@H]1CC[C@]2(C)[C@@H]1[C@H](O)C[C@@H]1[C@@]3(C)CC[C@H](O[C@@H]4O[C@H](CO)[C@@H](O)[C@H](O)[C@H]4O[C@@H]4O[C@H](CO)[C@@H](O)[C@H](O)[C@H]4O)C(C)(C)[C@@H]3CC[C@]12C [Ginsenoside Rc]	4.32
CC(C)=CCC[C@](C)(O[C@@H]1O[C@H](CO)[C@@H](O)[C@H](O)[C@H]1O)[C@H]1CC[C@]2(C)[C@@H]1[C@H](O)C[C@@H]1[C@@]3(C)CC[C@H](O)C(C)(C)[C@@H]3[C@@H](O[C@@H]3O[C@H](CO)[C@@H](O)[C@H](O)[C@H]3O[C@@H]3O[C@@H](C)[C@H](O)[C@@H](O)[C@H]3O)C[C@]12C [Ginsenoside Re]	7.33

a = O=C(/C=C/c1ccc(O)c2c1[C@H](C(=O)O)[C@@H](c1ccc(O)c(O)c1)O2)O[C@H](Cc1ccc(O)c(O)c1)C(=O)O
b = O=C(O)c1ccc(O)c(O)c1
Quick check, higher half-life between a and b ? Response format: the label of the selected entry.
b
(b: 8.38 h, a: 4.8 h)

###

- TEST_SUMMARY: Pharmacokinetics of 29 QLQX components in rat plasma by HPLC-MS/MS after intragastric QLQX
- CONDITION_CONTEXT: Sprague-Dawley, rat, in vivo, po, […]
OBSERVED_PROPERTY: Tmax (min)
Quick note: give the figure in min, leave out the unit.

Form field: reported Tmax of CCN1C[C@]2(COC)[C@H](O)C[C@H](OC)[C@@]34[C@@H]5C[C@@]6(O)[C@H](OC(=O)c7ccccc7)[C@@H]5[C@@](OC(C)=O)([C@@H]([C@H](OC)[C@H]23)[C@@H]14)[C@@H](O)[C@@H]6OC [Aconitine]
19.8

###

- TEST_SUMMARY: Pharmacokinetics of 29 QLQX components in rat plasma by HPLC-MS/MS after intragastric QLQX
- CONDITION_CONTEXT: Sprague-Dawley, rat, plasma, po, […]
OBSERVED_PROPERTY: Tmax (min)
Quick note: give the figure in min, leave out the unit.

Answered cases to consult:
COMPOUND	Tmax (min)
CC(C)=CCC[C@](C)(O[C@@H]1O[C@H](CO)[C@@H](O)[C@H](O)[C@H]1O)[C@H]1CC[C@]2(C)[C@@H]1[C@H](O)C[C@@H]1[C@@]3(C)CC[C@H](O)C(C)(C)[C@@H]3[C@@H](O[C@@H]3O[C@H](CO)[C@@H](O)[C@H](O)[C@H]3O)C[C@]12C [Ginsenoside Rg1]	40.2
CC(C)=CCC[C@](C)(O[C@@H]1O[C@H](CO[C@@H]2OC[C@H](O)[C@H](O)[C@H]2O)[C@@H](O)[C@H](O)[C@H]1O)[C@H]1CC[C@]2(C)[C@@H]1[C@H](O)C[C@@H]1[C@@]3(C)CC[C@H](O[C@@H]4O[C@H](CO)[C@@H](O)[C@H](O)[C@H]4O[C@@H]4O[C@H](CO)[C@@H](O)[C@H](O)[C@H]4O)C(C)(C)[C@@H]3CC[C@]12C [Ginsenoside Rb2]	90

Form field: reported Tmax of CC(C)=CCC[C@](C)(O[C@@H]1O[C@H](CO[C@@H]2O[C@@H](CO)[C@H](O)[C@H]2O)[C@@H](O)[C@H](O)[C@H]1O)[C@H]1CC[C@]2(C)[C@@H]1[C@H](O)C[C@@H]1[C@@]3(C)CC[C@H](O[C@@H]4O[C@H](CO)[C@@H](O)[C@H](O)[C@H]4O[C@@H]4O[C@H](CO)[C@@H](O)[C@H](O)[C@H]4O)C(C)(C)[C@@H]3CC[C@]12C [Ginsenoside Rc]
40.2

Form field: reported Tmax of COc1ccc(-c2coc3cc(O)ccc3c2=O)cc1 [Formononetin]
10.2

Form field: reported Tmax of CC(C)=CCC[C@](C)(O[C@@H]1O[C@H](CO[C@@H]2O[C@H](CO)[C@@H](O)[C@H](O)[C@H]2O)[C@@H](O)[C@H](O)[C@H]1O)[C@H]1CC[C@]2(C)[C@@H]1[C@H](O)C[C@@H]1[C@@]3(C)CC[C@H](O[C@@H]4O[C@H](CO)[C@@H](O)[C@H](O)[C@H]4O[C@@H]4O[C@H](CO)[C@@H](O)[C@H](O)[C@H]4O)C(C)(C)[C@@H]3CC[C@]12C [Ginsenoside Rb1]
40.2

Form field: reported Tmax of CC(C)=CCC[C@](C)(O[C@@H]1O[C@H](CO)[C@@H](O)[C@H](O)[C@H]1O)[C@H]1CC[C@]2(C)[C@@H]1[C@H](O)C[C@@H]1[C@@]3(C)CC[C@H](O)C(C)(C)[C@@H]3[C@@H](O[C@@H]3O[C@H](CO)[C@@H](O)[C@H](O)[C@H]3O[C@@H]3O[C@@H](C)[C@H](O)[C@@H](O)[C@H]3O)C[C@]12C [Ginsenoside Re]
40.2

###

- TEST_SUMMARY: Pharmacokinetics of 29 QLQX components in rat plasma by HPLC-MS/MS after intragastric QLQX
- CONDITION_CONTEXT: Sprague-Dawley, rat, in vivo, po, […]
OBSERVED_PROPERTY: half-life (h)
Quick note: give the figure in h, leave out the unit.

Form field: reported half-life of "CCN1C[C@]2(COC)[C@H](O)C[C@H](OC)[C@@]34[C@@H]5C[C@@]6(O)[C@H](OC(=O)c7ccccc7)[C@@H]5[C@@](OC(C)=O)([C@@H]([C@H](OC)[C@H]23)[C@@H]14)[C@@H](O)[C@@H]6OC"
18.4

###

- TEST_SUMMARY: Pharmacokinetics of 29 QLQX components in rat plasma by HPLC-MS/MS after intragastric QLQX
- CONDITION_CONTEXT: rat plasma, QLQX suspension […] intragastrically, mean ± SD
OBSERVED_PROPERTY: Tmax
A bare number is all that is needed in reply.

Answered cases to consult:
MOLECULE	NUMERIC_RESULT
CCN1C[C@]2(COC)[C@H](O)C[C@H](OC)[C@@]34[C@@H]5C[C@@]6(O)[C@H](OC(=O)c7ccccc7)[C@@H]5[C@@](O)([C@@H]([C@H](OC)[C@H]23)[C@@H]14)[C@@H](O)[C@@H]6OC	1.00
COC[C@]12CN(C)C3[C@@H]4[C@H](OC)[C@H]1[C@@]3([C@@H](OC)C[C@H]2O)[C@@H]1C[C@@]2(O)[C@H](OC(=O)c3ccccc3)[C@@H]1[C@]4(O)[C@@H](O)[C@@H]2OC	0.67
COC[C@@]12CC[C@H](OC)[C@]34C([C@H]([C@H](OC)[C@H]13)[C@]1(O)[C@H]3[C@@H](OC(=O)c5ccccc5)[C@](O)(C[C@H]34)[C@@H](OC)[C@@H]1O)N(C)C2	0.67
COC[C@]12CN(C)[C@@H]3[C@@H]4[C@H](OC)[C@H]1[C@@]3([C@@H](OC)C[C@H]2O)[C@@H]1C[C@@]2(O)[C@H](OC(=O)c3ccccc3)[C@@H]1[C@]4(OC(C)=O)[C@@H](O)[C@@H]2OC	0.17

Form field: reported Tmax of CC(C)(O)C1CCC(C)(C2C(O)CC3(C)C4CC(OC5OC(CO)C(O)C(O)C5O)C5C(C)(C)C(OC6OCC(O)C(O)C6O)CCC56CC46CCC23C)O1 (centres unmarked) [Astragaloside]
0.67
